Recorded measurements of Relative Binding Affinity to Progesterone Receptor, %, one per entry
Biological target: Progesterone Receptor (Homo sapiens, UniProt P06401)
Sequence (P06401 1-933): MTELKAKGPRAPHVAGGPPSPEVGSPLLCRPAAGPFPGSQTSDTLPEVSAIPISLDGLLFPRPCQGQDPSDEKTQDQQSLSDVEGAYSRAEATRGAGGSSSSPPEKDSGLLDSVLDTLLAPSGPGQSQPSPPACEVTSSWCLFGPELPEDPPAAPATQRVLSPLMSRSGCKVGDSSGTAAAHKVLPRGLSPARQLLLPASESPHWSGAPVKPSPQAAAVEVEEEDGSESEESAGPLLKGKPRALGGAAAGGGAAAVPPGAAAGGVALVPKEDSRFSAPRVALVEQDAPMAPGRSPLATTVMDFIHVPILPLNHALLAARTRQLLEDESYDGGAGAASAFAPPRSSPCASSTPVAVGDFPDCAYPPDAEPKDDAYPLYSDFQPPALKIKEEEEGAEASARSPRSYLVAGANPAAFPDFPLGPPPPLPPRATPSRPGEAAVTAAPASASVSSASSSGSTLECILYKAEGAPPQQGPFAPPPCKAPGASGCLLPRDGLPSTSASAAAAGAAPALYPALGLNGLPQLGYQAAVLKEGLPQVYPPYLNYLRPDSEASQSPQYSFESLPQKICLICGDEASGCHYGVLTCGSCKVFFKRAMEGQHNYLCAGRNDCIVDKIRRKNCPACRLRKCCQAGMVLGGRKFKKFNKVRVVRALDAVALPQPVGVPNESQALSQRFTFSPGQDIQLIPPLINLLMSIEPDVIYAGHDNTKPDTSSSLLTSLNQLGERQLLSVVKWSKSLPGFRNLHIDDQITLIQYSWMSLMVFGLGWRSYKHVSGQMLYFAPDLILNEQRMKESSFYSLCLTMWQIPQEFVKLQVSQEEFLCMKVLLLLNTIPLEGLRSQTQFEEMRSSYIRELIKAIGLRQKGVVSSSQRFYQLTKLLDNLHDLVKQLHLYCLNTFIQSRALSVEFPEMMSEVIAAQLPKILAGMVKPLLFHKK
Assay: Progesterone receptor binding, relative binding affinity (RBA)
Settings: RBA relative to progesterone = 100
Record the value in %, omitting the unit from your answer.

{"columns": ["COMPOUND", "MEASURED_NUMBER"],
 "data": [
  ["COc1cccc(C2CC3(C)C(CCC3(O)C#CC(C)(C)C)C3CCC4=CC(=O)CCC4=C23)c1 (stereo not shown)", 3.4],
  ["COc1cccc(C2CC3(C)C(CCC3(O)C#Cc3ccc(-n4cccc4)cc3)C3CCC4=CC(=O)CCC4=C23)c1 (stereo not shown)", 3.4],
  ["COc1cccc(C2CC3(C)C(CCC3(O)C#Cc3ccc(OC(C)=O)cc3)C3CCC4=CC(=O)CCC4=C23)c1 (stereo not shown)", 2.8],
  ["COc1cccc(C2CC3(C)C(CCC3(O)C#Cc3ccc(S(C)(=O)=O)cc3)C3CCC4=CC(=O)CCC4=C23)c1 (stereo not shown)", 1.0],
  ["COc1cccc(C2CC3(C)C(CCC3(O)C#Cc3ccc(O)cc3)C3CCC4=CC(=O)CCC4=C23)c1 (stereo not shown)", 2.9],
  ["COc1cccc(C2CC3(C)C(CCC3(O)C#Cc3cccc(C=NO)c3)C3CCC4=CC(=O)CCC4=C23)c1 (stereo not shown)", 10.4]
]}

The measured Relative Binding Affinity to Progesterone Receptor, % that COc1cccc(C2CC3(C)C(CCC3(O)C#Cc3cccc(C=O)c3)C3CCC4=CC(=O)CCC4=C23)c1 (stereo not shown) showed for Progesterone Receptor (Homo sapiens, UniProt P06401) is 4.3
